As shown below, each of these molecules has a reported log10 of EC50 value.
system: pT212Tau in Dyrk1a- and MAPT-overexpressing HEK293T cells; test: Tau phosphorylation at Threonine 212 (pT212Tau) sandwich ELISA in double transfected cells; settings: Homo sapiens, HEK-293T, read-out: Thr212 EC50 (μM)
In plain terms, each number is the log10 of measured EC50 in µM.

Would you please look over these solved cases?
INSERT INTO results (molecule, measured_number) VALUES
  ('O=C(Cn1ccnc1)Nc1cc2cc(-c3cccnc3)ccc2cn1', -0.70),
  ('CN1CCN(C[C@H]2CC[C@H](C(=O)Nc3cc4cc(-c5cnccn5)ccc4cn3)CC2)CC1', -1.62),
  ('[2H]c1nc([2H])c(-c2ccc3cnc(NC(=O)CN4CCCC4)cc3c2)c([2H])c1[2H]', -0.90),
  ('CC(C)CN1CCCC(C(=O)Nc2cc3cc(-c4cnccn4)ccc3cn2)CC1 (stereo not drawn)', -0.43),
  ('O=C(Nc1cc2cc(-c3cncc(CN4CCCC4)c3)ccc2cn1)C1CC1', -1.33),
  ('O=C(CN1CCCC1)Nc1cc2cc(-c3cncc(F)c3)ccc2cn1', -1.28);

*Q* Given Cc1cncc(-c2ccc3cnc(NC(=O)CN4CCOCC4)cc3c2)c1 , state its recorded log10 of EC50.
*A* -1.27

*Q* Consider the molecule shown here: CN1CCN(CC(=O)Nc2cc3cc(-c4cccnc4)c(F)cc3cn2)CC1 What is its recorded log10 of EC50?
*A* -0.09

*Q* Sample O=C(Nc1cc2cc(-c3cncc(F)c3)ccc2cn1)[C@H]1C[C@H](N2CCOCC2)C1 — what was its log10 of EC50?
*A* -1.34

*Q* Fill blank: measured log10 of EC50 of the molecule O=C(CN1CCOCC1)Nc1cc2cc(-c3cnccn3)ccc2cn1 is ____.
*A* -0.02

*Q* Query: log10 of EC50; subject: O=C(CN1CCOCC1)Nc1cc2cc(-c3cncc(F)c3)ccc2cn1
*A* -0.60

*Q* Bench note: what log10 of EC50 did O=C(CN1CCOCC1)Nc1cc2cc(-c3cccnn3)ccc2cn1 show?
*A* -0.10

*Q* // lookup log10 of EC50 for CN1CCN(CC(=O)Nc2cc3cc(-c4cncc(F)c4)ccc3cn2)CC1
*A* -0.60

*Q* Endpoint output: log10 of EC50 of CN1CCC(C(=O)Nc2cc3cc(-c4cncc(N5CCCC5)c4)ccc3cn2)CC1 . Value?
*A* -0.95

*Q* Any idea what its log10 of EC50 is? The molecule is [2H]C1([2H])OC([2H])([2H])C([2H])([2H])N(CC(=O)Nc2cc3cc(-c4cccnc4)ccc3cn2)C1([2H])[2H]
*A* -2.05
